Reference source for all entries: patent US20200071424A1

Catalogue of kon values
Biological target: T1, cynomolgus monkey EL (cynomolgus monkey)
T1 construct: Heparin extract; also called cynomolgus EL; Cynomolgus EL
Test: Biacore; EL captured by anti-C2-tag Ab; bivalent fit
Protocol: The binding affinities of anti-EL antibodies were measured using Biacore. […] Then, anti-EL antibodies were added and the binding affinities were calculated by bivalent fitting of BIAevaluation software.
Output spec: scalar in M⁻¹ s⁻¹, unitless text.

binder: 55A1 (antibody, mouse IgG2a, V domains shown, mouse IgG2a from hybridoma; also called 55A1 (mouse mAb)) VH: QIHLVQSGPELKKPGETVKISCKASGYTFTNYGMNWVKQAPGKGLKWMGWINTYSGVPTYAGDFKGRFAFSLETSASTAYLQINNLKNEDTATYFCARRGYYGRRYFDVWGTGTTVTVSS VL: DIVLTQSPASLAVSLGQRATISCKASQSVDYDVDSYMHWYQQKPGQPPKLLIYAASNLASGIPARFSGGGSGTDFTLNIHPVEEEDVATYYCQQTIEDPPTFGGGTKLEIK
value.type: kon
u: M⁻¹ s⁻¹
value: 250000
--
binder: 13B3 (antibody, mouse IgG2a, V domains shown, mouse IgG2a from hybridoma; also called 13B3 (mouse mAb)) VH: EVQLQQSGPELLKPGASVKISCKASGYTFTEYTMHWVKQSHGKSLEWIGSINPYYGGTSYNEKFKDKATLTVDKSSNTAYMEFRSLTSEDCAVYYCARYGNYVGYFDYWGQGTTLTVSS VL: ENVLTQSPAIMSASLGEKVTMSCRASSSVHYMYWYQQKSDASPKLWIYYTSNLAPGVPDRFSGSGSGNSYSLTISSMEGEDAATYYCQQFTSSPYTFGGGTKLEIK
value.type: kon
u: M⁻¹ s⁻¹
value: 47000

Lab note: measured kon of 53A11 (antibody, mouse IgG2a, V domains shown, mouse IgG2a from hybridoma; also called 53A11 (mouse mAb)) VH: EVQLQQSGPELLKPGASVKISCKASGYTFTDYTMHWVKQSHGKSLEWIGGINPYYGGTTYNEKFKDKATLTVDKSSSTAYMELRSLTSEDSAVYYCAKGDYYGGSYNYWGQGTTLTVSS VL: DIVLTQSLATLSVTPGDSVSLSCRASQDISNSLHWYQQKSHESPRLLIKYASQSISGIPSRFSGSGSGTDFTLSINSVETEDFGMYFCQQSNSWPYTFGGGTKLEIK was 91000
